Target: T1, CEACAM1 (Sino Biological) (human, UniProt P13688 35-428, limits assumed)
T1 construct: may be the same as CEACAM1-HIS; also called hCEACAM1; biotinylated soluble CEACAM1
T1 sequence: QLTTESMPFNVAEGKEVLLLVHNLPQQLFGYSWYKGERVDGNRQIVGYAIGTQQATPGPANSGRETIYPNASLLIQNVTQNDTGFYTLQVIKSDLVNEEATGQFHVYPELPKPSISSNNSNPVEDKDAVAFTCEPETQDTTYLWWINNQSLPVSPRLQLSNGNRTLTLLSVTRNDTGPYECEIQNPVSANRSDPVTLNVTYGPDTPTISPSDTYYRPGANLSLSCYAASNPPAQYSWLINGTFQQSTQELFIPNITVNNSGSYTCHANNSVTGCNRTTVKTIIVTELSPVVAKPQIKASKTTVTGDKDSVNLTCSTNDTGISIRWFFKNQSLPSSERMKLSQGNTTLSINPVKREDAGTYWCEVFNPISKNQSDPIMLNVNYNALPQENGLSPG
Assay: SPR multi-cycle, IgG on Protein A
quantity: kon (M⁻¹ s⁻¹)
Express the result in M⁻¹ s⁻¹ but write the number alone.

### Prompt Consider the binder He17/L1 (antibody, IgG4, V domains shown, IgG4 S241P, kappa; also called 17 / 1; H17/L1) VH: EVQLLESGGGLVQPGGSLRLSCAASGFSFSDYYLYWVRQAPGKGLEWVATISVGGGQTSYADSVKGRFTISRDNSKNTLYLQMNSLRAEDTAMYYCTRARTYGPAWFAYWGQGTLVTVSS VL: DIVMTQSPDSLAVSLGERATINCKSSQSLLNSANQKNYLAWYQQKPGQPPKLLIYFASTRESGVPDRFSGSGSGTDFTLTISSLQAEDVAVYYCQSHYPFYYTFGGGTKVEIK . State its measured kon.
### Response 302000

The measured values listed here are drawn from patent US20250388666A1.
